B1: CPEB3 Ribozyme (parent)
chain: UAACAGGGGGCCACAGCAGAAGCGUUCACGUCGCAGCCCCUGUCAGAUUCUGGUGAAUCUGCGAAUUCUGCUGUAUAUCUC

- Variants of: B1
- test: self-cleavage, relative activity (ratio to wild type); higher = more cleavage; in vitro, sequencing
measure.name: self-cleavage
Please give the numeric answer without any surrounding text.

Use these answered entries as a reference point.
seq: UAACAGGGGGCCACAGCAGAAGCGUUCACGUCGCAGCCCCUGUCAGAUCCUGGUGAAUCUGCGAACUCUGCUGUAUAUCUC [U49C U66C]
measured.number: 0.25
--
seq: UAACAGGGGGCCACAGCAGAAGCGUUCACGUCGCAGCCCCUGUCAGGUUCUGGUGAAGCUGCGAAUUCUGCUGUAUAUCUC [A47G U58G]
measured.number: 0.29
--
seq: UAACAGAGGGCCACAGCAGAAGCGUUCACGUCGCAGCCCCUGUCAGAUUCAGGUGAAUCUGCGAAUUCUGCUGUAUAUCUC [G7A U51A]
measured.number: 0.35
--
seq: UAACAGGGGGCCACAGCAGAAGCGUUCACGUGGCAGCCCCUGUCAGAUUCUGGAGAAUCUGCGAAUUCUGCUGUAUAUCUC [C32G U54A]
measured.number: 0.19
--
seq: UAACAGGGGGCCACAGCAGAAGCGUUCACGUCGCAGCCCCUGCCAGAUUCUGGUGAAUUUGCGAAUUCUGCUGUAUAUCUC [U43C C59U]
measured.number: 0.52
--
seq: UAACAGGGGGCCACAGCAGAAGCGUUCACGCCGCAGCGCCUGUCAGAUUCUGGUGAAUCUGCGAAUUCUGCUGUAUAUCUC [U31C C38G]
measured.number: 0.16

Which self-cleavage value belongs to UAACAGGGGGCCACAGCAGAAGCGUUCACGUCGCAGCCCCUGUCAGAUCCUGGUGAAUCUGCGAAUUCUGCUGUAUAUUUC [U49C C79U] ? 0.76

Please give the measured self-cleavage for this variant: UAGCAGGGGGCCACAGCAGAAGCGUUCACGUCGCAGACCCUGUCAGAUUCUGGUGAAUCUGCGAAUUCUGCUGUAUAUCUC [A3G C37A] 0.36

State the recorded self-cleavage for this entry: UAACAGGGCGCCACAGCGGAAGCGUUCACGUCGCAGCCCCUGUCAGAUUCUGGUGAAUCUGCGAAUUCUGCUGUAUAUCUC [G9C A18G] 0.16

Given UAACAGGGGGCCACAGCAGAAGCGUUCACGUUGCAGCCCCUGUCAGAUUCUGGUGAGUCUGCGAAUUCUGCUGUAUAUCUC [C32U A57G] , state its recorded self-cleavage. 0.22

Give its self-cleavage value. Item: UAACAGGGGGCCACAGCAGAAGCGUUCACGUCGCAGCCCCUGUCAGAUUCUGGUGAAUCUGCGAAUACAGCUGUAUAUCUC [U67A U69A] 0.3

Item UAACAGGGGGCCCCAGCAGAAGCGUUCACGUCGCAGCCCCUGUCAGAUUCUGGUGUAUCUGCGAAUUCUGCUGUAUAUCUC [A13C A56U] has what recorded self-cleavage? 0.48

Given the variant UAACAGGGGGCCACAGCAGAAGCGUUCGCGUCGCAGCCCCUGUCAGAUUCUGGUGAAUCUGCGAAUUCUGAUGUAUAUCUC [A28G C71A] , what is its reported self-cleavage? 0.14
